// reported pest or weed control at 250 g/ha for each item listed
Test system: Echinochloa crus-galli (ECHCG)
TEST NAME: Glasshouse assay for herbicidal activity, pre-/post-emergence (percentage phytotoxicity)
Format: in vivo
EXPERIMENTAL SETUP: Echinochloa crus-galli, post-emergence, 360 h, Rate 250 g/ha; post-emergence; visual assessment 15 DAA; 100%=total damage, 0%=no damage; read-out: Post-emergence herbicidal activity (percentage phytotoxicity), ECHCG POST
Number only, in %; omit the unit.

Sample answers from the record:
**Q:** Which pest or weed control at 250 g/ha value belongs to Cc1cc(C)c(C2C(=O)CC(CCNS(=O)(=O)c3ccccc3C)C2=O)c(C)c1 (centres unmarked) [Compound A87] ?
**A:** 0

**Q:** Which pest or weed control at 250 g/ha value belongs to Cc1cc(C)c(C2C(=O)CC(CCNC(=O)NC(=O)c3ccccc3F)C2=O)c(C)c1 (centres unmarked) [Compound A54] ?
**A:** 100

**Q:** Which pest or weed control at 250 g/ha value belongs to Cc1cc(C)c(C2C(=O)CC(CCNC(=O)Nc3cc(C(F)(F)F)ccn3)C2=O)c(C)c1.Cl (centres unmarked) [Compound A2] ?
**A:** 100

**Q:** Which pest or weed control at 250 g/ha value belongs to Cc1cc(-c2ncc(Cl)cn2)cc(C)c1C1C(=O)CC(CCNC(=O)C2=NOC(C)(C)C2)C1=O (centres unmarked) [Compound A118] ?
**A:** 100

**Q:** Which pest or weed control at 250 g/ha value belongs to Cc1cc(-n2cc(Cl)cn2)cc(C)c1C1C(=O)CC(CCNC(=O)NC(C)(C)C)C1=O (centres unmarked) [Compound A21] ?
**A:** 100

---
**Q:** Which pest or weed control at 250 g/ha value belongs to Cc1cc(C)c(C2C(=O)CC(CCN(C)C(=O)Nc3ccccn3)C2=O)c(C)c1 (centres unmarked) [Compound A101] ?
**A:** 70

**Q:** Which pest or weed control at 250 g/ha value belongs to Cc1cc(C)c(C2C(=O)CC(CCNc3ccc(C(F)(F)F)cn3)C2=O)c(C)c1 (centres unmarked) [Compound A34] ?
**A:** 100

**Q:** Which pest or weed control at 250 g/ha value belongs to Cc1cc(-c2ncc(Cl)cc2F)cc(C)c1C1C(=O)CC(CCNC(=O)NC(C)(C)C)C1=O.Cl (centres unmarked) [Compound A29] ?
**A:** 100

###

// reported pest or weed control at 250 g/ha for each item listed
Tested on: Alopecurus myosuroides (ALOMY)
TEST NAME: Glasshouse assay for herbicidal activity, pre-/post-emergence (percentage phytotoxicity)
Format: in vivo
EXPERIMENTAL SETUP: Alopecurus myosuroides, 360 h; Rate 250 g/ha; post-emergence; visual assessment 15 DAA; 100%=total damage, 0%=no damage; read-out: Post-emergence herbicidal activity (percentage phytotoxicity), ALOMY POST
Answer with the number, then the unit.

**Q:** Which pest or weed control at 250 g/ha value belongs to Cc1cc(C)c(C2C(=O)CC(CCNC(=O)N(C)Cc3ccccc3)C2=O)c(C)c1 (stereo not shown) ?
**A:** 80%

**Q:** Which pest or weed control at 250 g/ha value belongs to C=Cc1cc(C)cc(C)c1C1C(=O)CC(CCNC(=O)C2=NOC(C)(C)C2)C1=O (racemic) ?
**A:** 90%

**Q:** Which pest or weed control at 250 g/ha value belongs to Cc1cc(-n2cc(Cl)cn2)cc(C)c1C1C(=O)CC(CCNC(=O)Nc2ccccn2)C1=O.Cl (stereo not shown) ?
**A:** 90%

---
**Q:** Which pest or weed control at 250 g/ha value belongs to Cc1cc(-c2ncc(Cl)cc2F)cc(C)c1C1C(=O)CC(CCNC(=O)NC(C)(C)C)C1=O.Cl (stereo not shown) ?
**A:** 100%

**Q:** Which pest or weed control at 250 g/ha value belongs to Cc1cc(C)c(C2C(=O)CC(CCNS(=O)(=O)c3ccc(Cl)c(Cl)c3)C2=O)c(C)c1 (stereo not shown) ?
**A:** 40%

**Q:** Which pest or weed control at 250 g/ha value belongs to Cc1cc(-c2ncc(Cl)cc2F)cc(C)c1C1C(=O)CC(CCNC(=O)Nc2ccccn2)C1=O (stereo not shown) ?
**A:** 90%

###

Test system: Echinochloa crus-galli (ECHCG)
TEST NAME: Glasshouse assay for herbicidal activity, pre-/post-emergence (percentage phytotoxicity)
Type: in vivo
EXPERIMENTAL SETUP: Echinochloa crus-galli, post-emergence, 360 h, Rate 250 g/ha; post-emergence; visual assessment 15 DAA; 100%=total damage, 0%=no damage; read-out: Post-emergence herbicidal activity (percentage phytotoxicity), ECHCG POST
// reported pest or weed control at 250 g/ha for each item listed
Answer with the number, then the unit.

Sample answers from the record:
**Q:** Which pest or weed control at 250 g/ha value belongs to CC#Cc1cc(C)c(C2C(=O)CC(CCNC(=O)C3=NOC(C)(C)C3)C2=O)c(C)c1 (stereo not shown) ?
**A:** 100%

**Q:** Which pest or weed control at 250 g/ha value belongs to Cc1cc(C)c(C2C(=O)CC(CCNC(=O)NC(=O)c3ccc(Cl)c(Cl)c3)C2=O)c(C)c1 (stereo not shown) ?
**A:** 70%

**Q:** Which pest or weed control at 250 g/ha value belongs to Cc1cc(C)c(C2C(=O)CC(CCNC(=O)N3CCOCC3)C2=O)c(C)c1 (stereo not shown) ?
**A:** 60%

# ---- query compound ----
**Q:** Which pest or weed control at 250 g/ha value belongs to Cc1cc(-n2cc(Cl)cn2)cc(C)c1C1C(=O)CC(CCNc2ncc(C(F)(F)F)cc2F)C1=O (stereo not shown) ?
**A:** 100%

###

System: wheat
TEST NAME: Post-emergence herbicidal activity against cereal crops (wheat) +/- safener, crop selectivity
Assay type: in vivo
EXPERIMENTAL SETUP: 250 g/ha, plus safener cloquintocet-mexyl (CQC) applied at 50 g/ha, 100%=total damage to plant, 0%=no damage
// reported Post-emergence herbicidal activity against wheat (percentage phytotoxicity), +CQC for each item listed
Number only, in %; omit the unit.

Sample answers from the record:
**Q:** Which Post-emergence herbicidal activity against wheat (percentage phytotoxicity), +CQC value belongs to COc1ccc(C(=O)NC(=O)NCCC2CC(=O)C(c3c(C)cc(C)cc3C)C2=O)cc1 (stereo not drawn) ?
**A:** 20

**Q:** Which Post-emergence herbicidal activity against wheat (percentage phytotoxicity), +CQC value belongs to Cc1cc(C)c(C2C(=O)CC(CCNC(=O)N(C)c3ccccc3)C2=O)c(C)c1 (stereo not drawn) ?
**A:** 10

# ---- query compound ----
**Q:** Which Post-emergence herbicidal activity against wheat (percentage phytotoxicity), +CQC value belongs to Cc1cc(C)c(C2C(=O)CC(CCNC(=O)Nc3ccccn3)C2=O)c(C)c1.Cl (stereo not drawn) ?
**A:** 60

###

Test system: Echinochloa crus-galli (ECHCG)
TEST NAME: Glasshouse assay for herbicidal activity, pre-/post-emergence (percentage phytotoxicity)
Type: in vivo
EXPERIMENTAL SETUP: Echinochloa crus-galli, pre-emergence, 480 h, Rate 250 g/ha; pre-emergence; visual assessment 20 DAA; 100%=total damage, 0%=no damage; read-out: Pre-emergence herbicidal activity (percentage phytotoxicity), ECHCG PRE
// reported pest or weed control at 250 g/ha for each item listed
Number only, in %; omit the unit.

**Q:** Which pest or weed control at 250 g/ha value belongs to Cc1cc(C)c(C2C(=O)CC(CCNC(=O)Nc3ccc(Br)cn3)C2=O)c(C)c1.Cl (centres unmarked) ?
**A:** 60

**Q:** Which pest or weed control at 250 g/ha value belongs to CON=C(C#N)C(=O)NCCC1CC(=O)C(c2c(C)cc(-n3cc(Cl)cn3)cc2C)C1=O (centres unmarked) ?
**A:** 0

**Q:** Which pest or weed control at 250 g/ha value belongs to C=Cc1cc(C)cc(C)c1C1C(=O)CC(CCNC(=O)C2=NOC(C)(C)C2)C1=O (racemic) ?
**A:** 0

**Q:** Which pest or weed control at 250 g/ha value belongs to Cc1cc(C)c(C2C(=O)CC(CCNC(=O)NC(=O)c3c(F)cccc3F)C2=O)c(C)c1 (centres unmarked) ?
**A:** 90

**Q:** Which pest or weed control at 250 g/ha value belongs to Cc1cc(-c2ncc(C#N)cn2)cc(C)c1C1C(=O)CC(CCNC(=O)C2=NOC(C)(C)C2)C1=O (centres unmarked) ?
**A:** 70

**Q:** Which pest or weed control at 250 g/ha value belongs to Cc1ccc(C(=O)NC(=O)NCCC2CC(=O)C(c3c(C)cc(C)cc3C)C2=O)cc1 (centres unmarked) ?
**A:** 80

---
**Q:** Which pest or weed control at 250 g/ha value belongs to Cc1cc(C)c(C2C(=O)CC(CCNC(=O)N(C)C(C)(C)C)C2=O)c(C)c1 (centres unmarked) ?
**A:** 100

**Q:** Which pest or weed control at 250 g/ha value belongs to Cc1cc(C)c(C2C(=O)CC(CCNC(=O)NC(=O)c3ccccn3)C2=O)c(C)c1 (centres unmarked) ?
**A:** 100

**Q:** Which pest or weed control at 250 g/ha value belongs to Cc1cc(C)c(C2C(=O)CC(CCNC(=O)NC(=O)c3c(F)cc(Cl)cc3F)C2=O)c(C)c1 (centres unmarked) ?
**A:** 80

**Q:** Which pest or weed control at 250 g/ha value belongs to CC(=NOCc1ccccc1)C(=O)NCCC1CC(=O)C(c2c(C)cc(-n3cc(Cl)cn3)cc2C)C1=O (centres unmarked) ?
**A:** 0

**Q:** Which pest or weed control at 250 g/ha value belongs to CC(=NOCc1ccccc1)C(=O)NCCC1CC(=O)C(c2c(C)cc(C)cc2C)C1=O (centres unmarked) ?
**A:** 0
